# measurementDescription: Solubility by nephelometry (water, buffer pH 7.4)
# Assay type: physicochemical
# conditions: ultrapure water, nephelometry; read-out: Sol. (H2O)
quantityName: solubility kinetic at 30 s

Illustrative cases are given below, each with its answer.
molecule	solubility kinetic at 30 s
c1ccc2[nH]c(NC3CCNCC3)nc2c1 [Compound 1]	33.3 µg/mL
CO[C@H]1C[C@@H]2CC[C@@H](C)[C@@](O)(O2)C(=O)C(=O)N2CCCC[C@H]2C(=O)O[C@H]([C@H](C)C[C@@H]2CC[C@@H](O)[C@H](OC)C2)CC(=O)[C@H](C)/C=C(\C)[C@@H](O)[C@@H](OC)C(=O)[C@H](C)C[C@H](C)/C=C/C=C/C=C/1C [Rapamycin, rapamycin]	< 6 µg/mL
NC(=O)[C@@H]1CC[C@H](C(=O)O)N1 [Compound 4]	> 1000 µg/mL
Br.Br.c1ccc2[nH]c(NC3CCNCC3)nc2c1 [Compound 2]	> 1000 µg/mL
CN(C)c1cccc(-c2cccc(C(N)=O)c2)c1 [Compound 6]	< 6 µg/mL

# lookup: solubility kinetic at 30 s of O=C(O[C@@H]1Cc2c(O)cc(O)cc2O[C@@H]1c1ccc(O)c(O)c1)c1cc(O)c(O)c(O)c1 [Compound 7, epicatechin gallate] 789 µg/mL

# get_value(readout='solubility kinetic at 30 s', item= Nc1ccc(C(=O)Nc2cccc(-c3c[nH]c4ncccc34)c2)cc1O [Compound 3] ) < 6 µg/mL

###

# measurementDescription: Shake-flask partition coefficient logP and distribution coefficient logD (pH 7.4)
# Format: physicochemical
# conditions: n-octanol/water, shake-flask, n-octanol/water; read-out: logP
quantityName: logP

molecule	logP
COc1ccc(CN2CCNC2=N)cc1OC [Compound 5]	-1.79
Nc1ccc(C(=O)Nc2cccc(-c3c[nH]c4ncccc34)c2)cc1O [Compound 3]	2.08
CO[C@H]1C[C@@H]2CC[C@@H](C)[C@@](O)(O2)C(=O)C(=O)N2CCCC[C@H]2C(=O)O[C@H]([C@H](C)C[C@@H]2CC[C@@H](O)[C@H](OC)C2)CC(=O)[C@H](C)/C=C(\C)[C@@H](O)[C@@H](OC)C(=O)[C@H](C)C[C@H](C)/C=C/C=C/C=C/1C [Rapamycin, rapamycin]	3.97

P: CN(C)c1cccc(-c2cccc(C(N)=O)c2)c1 [Compound 6]
Q: O=C(O[C@@H]1Cc2c(O)cc(O)cc2O[C@@H]1c1ccc(O)c(O)c1)c1cc(O)c(O)c(O)c1 [Compound 7, epicatechin gallate]
R: NC(=O)[C@@H]1CC[C@H](C(=O)O)N1 [Compound 4]
Put the items in sequence by logP, from largest down. Rank the items, then write their labels in that order. P, Q, R

###

# measurementDescription: Solubility by nephelometry (water, buffer pH 7.4)
# Type: physicochemical
# conditions: water
quantityName: logSH2O

Illustrative cases are given below, each with its answer.
Nc1ccc(C(=O)Nc2cccc(-c3c[nH]c4ncccc34)c2)cc1O <−4.76
NC(=O)[C@@H]1CC[C@H](C(=O)O)N1 >−2.20

--- query ---
Give the measured logSH2O of `CN(C)c1cccc(-c2cccc(C(N)=O)c2)c1` . <−4.60

This collection of values is drawn from paper PMC9767416.
